Listed here: items and their measured IC50.
# tested_system: CyclinA2/CDK2 (Homo sapiens)
# Construct: purchased CRELUX Protein Services
# protocol_summary: Fluorescence Polarization (FP) competitive binding assay, Cyclin A2/Cdk2;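 also: plates equilibrated two hours at room temperature before polarization reading, IC50 fitted from eight-concentration compound titration curves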
# experimental_context: 8 nM Cyclin A2/Cdk2, 2 nM FAM probe; average of 2-3 independent experiments; read-out: Cyclin A FP IC50
*1 amine or outer side, *2 acyl side, *3 side chain or, on linkers, in order; H or OH if unused. Where a SMILES comes first, the peptide text is derived from it. Bridges are numbered along the chain shown (N, C = ends). [ ]: non-standard residue; d: D form. The star is where a group is joined. NMePhe(2-(4-MorPh),5-Cl) = CN[C@@H](Cc1cc(Cl)ccc1-c1ccc(N2CCOCC2)cc1)C(=O)O; X43 = CC(C)N1CCN(c2ccc(-c3ccc(Cl)cc3C[C@@H](C(=O)[*:2])N(C)[*:1])cc2)CC1; X149 = CN([C@@H](Cc1cc(Cl)ccc1-c1ccnc(N2CCOCC2)c1F)C(=O)[*:2])[*:1]; X158 = CCOc1ccc(-c2ccc(Cl)cc2C[C@@H](C(=O)[*:2])N(C)[*:1])cn1; NMehhhLys(Me) = CN([C@@H](CCCCCCCN(C)[*:3])C(=O)[*:2])[*:1]; cBuCO(3,3-F2-1-CF3) = O=C(C1(C(F)(F)F)CC(F)(F)C1)*; Pro(trans-4-F) = O=C(O)[C@@H]1C[C@@H](F)CN1; Gly(cPr) = N[C@H](C(=O)O)C1CC1
assay_metric: IC50

[
  {
    "compound": "CC(C)C[C@@H]1NC(=O)[C@@H](N(C)C(=O)[C@@H](NC(=O)[C@@H]2C[C@@H](F)CN2C(=O)C2(C(F)(F)F)CCC2)C2CC2)CC=CCCCCN(C)C(=O)[C@H](Cc2cc(Cl)cnc2OC2CC2)N(C)C1=O",
    "result_value": "120 nM"
  },
  {
    "compound": "CC(C)C[C@@H]1NC(=O)[C@@H](N(C)C(=O)[C@@H](NC(=O)[C@@H]2C[C@@H](F)CN2C(=O)C2(C(F)(F)F)CC(F)(F)C2)C2CC2)CCCCCCCN(C)C(=O)[C@H](Cc2cc(Cl)ccc2-c2ccc(N3CCN(C(C)C)CC3)cc2)N(C)C1=O [Example 347] ({cBuCO(3,3-F2-1-CF3)}-[Pro(trans-4-F)][Gly(cPr)][NMehhhLys(Me)]L[X43]; lactam 3-C)",
    "result_value": "20 nM"
  },
  {
    "compound": "CC(C)C[C@@H]1NC(=O)[C@@H](N(C)C(=O)[C@@H](NC(=O)[C@@H]2C[C@@H](F)CN2C(=O)C2(C(F)(F)F)CC(F)(F)C2)C2CC2)CCCCCCCN(C)C(=O)[C@H](Cc2cc(Cl)ccc2-c2ccc(N3CCOCC3)cc2)N(C)C1=O [Example 261] ({cBuCO(3,3-F2-1-CF3)}-[Pro(trans-4-F)][Gly(cPr)][NMehhhLys(Me)]L[NMePhe(2-(4-MorPh),5-Cl)]; lactam 3-C)",
    "result_value": "20 nM"
  },
  {
    "compound": "CCOc1ccc(-c2ccc(Cl)cc2C[C@H]2C(=O)N(C)CCCCCCC[C@H](N(C)C(=O)[C@@H](NC(=O)[C@@H]3C[C@@H](F)CN3C(=O)C3(C(F)(F)F)CC(F)(F)C3)C3CC3)C(=O)N[C@@H](CC(C)C)C(=O)N2C)cn1 [Example 182] ({cBuCO(3,3-F2-1-CF3)}-[Pro(trans-4-F)][Gly(cPr)][NMehhhLys(Me)]L[X158]; lactam 3-C)",
    "result_value": "20 nM"
  },
  {
    "compound": "CC(C)C[C@@H]1NC(=O)[C@@H](N(C)C(=O)[C@@H](NC(=O)[C@@H]2C[C@@H](F)CN2C(=O)C2(C(F)(F)F)CC(F)(F)C2)C2CC2)CCCCCCCN(C)C(=O)[C@H](Cc2cc(Cl)ccc2-c2ccnc(N3CCOCC3)c2F)N(C)C1=O [Example 349] ({cBuCO(3,3-F2-1-CF3)}-[Pro(trans-4-F)][Gly(cPr)][NMehhhLys(Me)]L[X149]; lactam 3-C)",
    "result_value": "20 nM"
  },
  {
    "compound": "CC(C)C[C@@H]1NC(=O)[C@@H](N(C)C(=O)[C@@H](NC(=O)[C@@H]2C[C@@H](F)CN2C(=O)C2(C(F)(F)F)CC(F)(F)C2)C2CC2)CC=CCCCCNC(=O)[C@H](Cc2cc(Cl)ccc2C2=CCN(S(C)(=O)=O)CC2)N(C)C1=O",
    "result_value": "120 nM"
  },
  {
    "compound": "CC(C)C[C@@H]1NC(=O)[C@@H](N(C)C(=O)[C@H](C)NC(=O)[C@@H]2C[C@@H](F)CN2C(=O)C2(C(F)(F)F)CC(F)(F)C2)CC=CCCCCNC(=O)[C@H](Cc2cc(Cl)ccc2Cl)N(C)C1=O",
    "result_value": "390 nM"
  }
]
